tested on: Herpes simplex virus-1 TK^− KOS ACV^r; test: microbe, parasite or virus in culture; assay type: cell-based; details: Human alphaherpesvirus 1, HeLa, read-out: EC50 (required to reduce virus-induced cytopathogenicity by 50%) Herpes simplex virus-1 TK^− KOS ACV^r
valueType: pEC50
Lab note — pEC50 values are minus log10 of concentrations in M.

What value of measured pEC50 is listed for Nc1nc2c(ncn2COCCO)c(=O)[nH]1 [Acyclovir] ?
4.30

Query: pEC50; subject: Nc1nc(O)c2ncn(COC(CO)CO)c2n1 [Ganciclovir]
5.00

Sample Nc1ccn(C[C@@H](CO)OCP(=O)(O)O)c(=O)n1 [Cidofovir] — what was its pEC50?
6.05

For the molecule shown here, O=c1[nH]c(=O)n([C@H]2C[C@H](O)[C@@H](CO)O2)cc1/C=C/Br [Brivudin] , give the reported pEC50.
4.30

----------
system: Vaccinia virus; test: microbe, parasite or virus in culture; type: cell-based; details: Orthopoxvirus vaccinia, HeLa, read-out: EC50 (required to reduce virus-induced cytopathogenicity by 50%) Vaccinia virus
valueType: pEC50
Please note pEC50 is a logarithmic value: minus log10 of concentration in mol/L. Answer with that number alone.

Please look up its pEC50: O=c1[nH]c(=O)n([C@H]2C[C@H](O)[C@@H](CO)O2)cc1/C=C/Br
5.00

Query: pEC50; subject: Nc1ccn(C[C@@H](CO)OCP(=O)(O)O)c(=O)n1
4.77

----------
tested on: murine leukemia cells (L1210); experiment: proliferation activity assay, L1210 cells; type: cell-based; conditions: read-out: IC50 (50% inhibitory concentration) L1210
valueType: IC50 (µM)
Report the figure in µM without appending any unit label.

# input compound: N.N.[Cl][Pt][Cl] [Cisplatin] ; wanted: its IC50
1

Entry source: patent US10138261B2
